The measured values listed here are drawn from patent US20230339952A1.

Test system: NCI-H1975 (ATCC CRL-5908) cell line comprising an EGFR T790M L858R double mutation
Experiment summary: EGFR-SOS cellular inhibition assay (CellTiter-Glo cell proliferation)
Type: cell-based
Applied conditions: Homo sapiens, 120 h; NCI-H1975 cell proliferation, approximately 5 days; read-out: H1975 IC50
The entries below come with measured IC50 values attached.

# Molecule, Tested system, IC50
records = [
    ("C[C@H]1Nc2ncnc3c2cc(C2(C#N)CC2)c(=O)n3CCCCCCCN2CCC(CC2(C)C)C(F)(F)c2cccc1c2 (stereo partly drawn)", "NCI-H1975 (ATCC CRL-5908) cell line comprising an EGFR T790M L858R double mutation", "< 1000 nM"),
    ("C[C@H]1Nc2ncnc3c2cc(C2CCS(=O)(=O)CC2)c(=O)n3CCCCCCCN2CC(C2)CC(F)(F)c2cccc1c2", "NCI-H1975 (ATCC CRL-5908) cell line comprising an EGFR T790M L858R double mutation", "< 1000 nM"),
    ("C[C@H]1Nc2ncnc3c2cc(C2CCS(=O)(=O)CC2)c(=O)n3CCCCn2cc(nn2)CN2CCC(CC2)C(F)(F)c2cccc1c2F", "NCI-H1975 (ATCC CRL-5908) cell line comprising an EGFR T790M L858R double mutation", "< 1000 nM"),
]

* * *

Tested system: SOS1 (Homo sapiens (Human))
Sequence (Q07889 564-1049): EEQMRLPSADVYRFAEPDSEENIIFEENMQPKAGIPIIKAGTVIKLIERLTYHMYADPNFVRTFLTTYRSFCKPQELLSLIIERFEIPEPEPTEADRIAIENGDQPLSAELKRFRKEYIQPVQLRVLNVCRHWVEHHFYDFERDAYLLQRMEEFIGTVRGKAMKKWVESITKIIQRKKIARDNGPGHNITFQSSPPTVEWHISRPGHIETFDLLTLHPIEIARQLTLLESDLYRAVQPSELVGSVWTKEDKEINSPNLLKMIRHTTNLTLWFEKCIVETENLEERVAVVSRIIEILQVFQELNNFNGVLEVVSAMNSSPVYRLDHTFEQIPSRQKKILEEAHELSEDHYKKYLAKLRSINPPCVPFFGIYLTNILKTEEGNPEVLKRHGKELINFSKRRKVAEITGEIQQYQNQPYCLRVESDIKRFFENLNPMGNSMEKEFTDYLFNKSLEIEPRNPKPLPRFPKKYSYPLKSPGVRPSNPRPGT
Experiment summary: Ras-SOS interaction assay (HTRF), K-Ras G13D utilized
Assay type: binding
Applied conditions: comparative values (Table 3), read-out: SOS1 IC50

# Molecule, Tested system, Scale unit, IC50
records = [
    ("Cc1nc2c3cc(C4CCN(C(C)C)CC4)c(=O)n(c3n1)CCCC/C=C\\CN1CCC(CC1)C(F)(F)c1cccc(c1)[C@@H](C)N2 [Compound 175]", "SOS1 (Homo sapiens (Human))", "nM", 8),
    ("C[C@H]1Nc2ncnc3c2cc(C2CCS(=O)(=O)CC2)c(=O)n3CCCOCCCCN2CC(C2)CC(F)(F)c2cccc1c2 [Compound 176]", "SOS1 (Homo sapiens (Human))", "nM", 7),
]

* * *

Tested system: SOS1 (Homo sapiens (Human))
Experiment summary: Ras-SOS interaction assay (HTRF), K-Ras G13D utilized
Format: binding
Applied conditions: K-Ras G13D, read-out: SOS1 IC50
pIC50: −log10 of the molar value.
The entries below come with measured pIC50 values attached.
Reported property: pIC50

# Compound, Experimental result
records = [
    ("C[C@H]1Nc2ncnc3c2cc(N2CCS(=O)(=O)CC2)c(=O)n3CCCCCN2CCC(CC2)CCC(F)(F)c2cccc1c2", "> 7.00"),
    ("Cc1nc2c3cc(C4CCS(=O)(=O)CC4)c(=O)n(c3n1)CCCC/C=C\\CC(C)(O)C(F)(F)c1cccc(c1)[C@@H](C)N2 (stereo partly shown)", "5.30 to 7.00"),
    ("Cc1nc2c3cc(C4(C#N)CC4)c(=O)n(c3n1)CCCCCOCC(F)(F)c1cccc(c1F)[C@@H](C)N2", "5.30 to 7.00"),
    ("CC(C)N1CCN(c2cc3c4ncnc3n(c2=O)CCCCCCCN2CCC(CC2)C(F)(F)c2cccc(c2F)[C@@H](C)N4)CC1", "> 7.00"),
    ("C[C@@H]1C(=O)NCCCCn2c(=O)c(C3(C#N)CC3)cc3c(ncnc32)N[C@H](C)c2cccc(c2)C(F)(F)C2CCN1CC2", "> 7.00"),
    ("C[C@H]1Nc2ncnc3c2cc(N2CCS(=O)(=O)CC2)c(=O)n3CCCCCN2CCC(CC2)CCC(F)(F)c2cccc1c2F", "> 7.00"),
    ("C[C@H]1Nc2ncnc3nc(c(C4(C#N)CC4)cc23)OCCCCCCN2CCC(CC2)C(F)(F)c2cccc1c2", "> 7.00"),
    ("C[C@H]1Nc2ncnc3c2cc(C2(C#N)CC2)c(=O)n3CCCn2cc(nn2)CN2CCC(CC2)C(F)(F)c2cccc1c2", "> 7.00"),
    ("Cc1nc2c3cc(C4CCS(=O)(=O)CC4)c(=O)n(c3n1)CCCCCCCN1CCC(CC1)C(F)(F)c1cccc(c1)[C@@H](C)N2 [Compound 173]", "> 7.00"),
    ("C[C@H]1Nc2ncnc3c2cc(C2CCS(=O)(=O)CC2)c(=O)n3CCCOCCCCN2CCC(CC2)C(F)(F)c2cccc1c2", "> 7.00"),
    ("C[C@H]1Nc2ncnc3c2cc(C2CCS(=O)(=O)CC2)c(=O)n3CC(=O)NCCCCN2CCC(CC2)C(F)(F)c2cccc1c2", "> 7.00"),
    ("C[C@H]1Nc2ncnc3c2cc(C2CCS(=O)(=O)CC2)c(=O)n3CCCCCC(C)(O)CN2CCC(CC2)C(F)(F)c2cccc1c2 (stereo partly shown)", "> 7.00"),
    ("C[C@H]1Nc2ncnc3c2cc(C2CCS(=O)(=O)CC2)c(=O)n3Cc2cn(nn2)CCCCN2CCC(CC2)C(F)(F)c2cccc1c2", "> 7.00"),
]
